The listing below reports log10 of IC50 for molecules tested on Amine oxidase [flavin-containing] A (Homo sapiens).
Sequence (P21397 whole entry): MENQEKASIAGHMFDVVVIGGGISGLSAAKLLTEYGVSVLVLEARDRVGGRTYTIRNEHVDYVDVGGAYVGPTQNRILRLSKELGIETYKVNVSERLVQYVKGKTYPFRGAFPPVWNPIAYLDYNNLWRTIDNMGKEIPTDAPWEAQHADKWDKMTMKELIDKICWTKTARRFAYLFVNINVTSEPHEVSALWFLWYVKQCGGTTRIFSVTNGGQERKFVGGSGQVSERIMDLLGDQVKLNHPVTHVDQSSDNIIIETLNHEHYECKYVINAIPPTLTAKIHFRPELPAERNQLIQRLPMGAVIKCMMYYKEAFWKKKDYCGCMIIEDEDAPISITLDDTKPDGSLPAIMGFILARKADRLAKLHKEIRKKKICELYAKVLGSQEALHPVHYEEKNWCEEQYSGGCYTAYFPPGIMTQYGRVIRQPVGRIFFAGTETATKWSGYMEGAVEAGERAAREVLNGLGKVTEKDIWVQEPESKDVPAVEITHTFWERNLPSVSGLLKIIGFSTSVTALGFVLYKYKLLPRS
Please be aware that the numbers have been log10-transformed from IC50 in µM.

Query string: Under Amine oxidase [flavin-containing] A (Homo sapiens): report log10 of IC50 of "O=c1cc(-c2ccc(Cl)cc2)oc2ccc(Cn3cc(CNc4ccc(F)cc4)nn3)cc12" .
Result string: 0.20

Query string: Fill in: log10 of IC50 on Amine oxidase [flavin-containing] A (Homo sapiens), entry "O=c1cc(-c2ccccc2)oc2ccc(Cn3nncc3CNc3ccc(Cl)cc3)cc12"
Result string: 2.52

Next:
Query string: // fetch log10 of IC50; item: "Cc1ccc(C(=O)NCc2cn(Cc3ccc4oc(-c5ccccc5)cc(=O)c4c3)nn2)cc1" ; system: Amine oxidase [flavin-containing] A (Homo sapiens)
Result string: 2.86

Query string: Recall the reported log10 of IC50 of "Cc1ccc(NCc2cn(Cc3ccc4oc(-c5ccc(Cl)cc5)cc(=O)c4c3)nn2)cc1" on Amine oxidase [flavin-containing] A (Homo sapiens) and write it down.
Result string: 2.29

Query string: Tell me log10 of IC50 of "O=c1cc(-c2ccc(Cl)cc2)oc2ccc(Cn3cc(CNc4ccccc4)nn3)cc12" when tested on Amine oxidase [flavin-containing] A (Homo sapiens).
Result string: 2.45

* * *

Recorded below: pIC50, system Amine oxidase [flavin-containing] A (Homo sapiens).
Quick note: pIC50 means taking -log10 of the concentration in moles per liter.

// solved cases for pIC50 follow
Query string: Report its pIC50 with Amine oxidase [flavin-containing] A (Homo sapiens) as the test system: "O=C(NCc1cn(Cc2ccc3oc(-c4ccc(Cl)cc4)cc(=O)c3c2)nn1)c1ccc(Cl)cc1"
Result string: 3.43

Query string: Report value: pIC50, system: Amine oxidase [flavin-containing] A (Homo sapiens), compound: "Cc1ccc(NCc2cnnn2Cc2ccc3oc(-c4ccccc4)cc(=O)c3c2)cc1"
Result string: 3.96

Query string: Give measured pIC50 for "O=c1cc(-c2ccccc2)oc2ccc(Cn3cc(CNc4ccc(Cl)cc4)nn3)cc12" (Amine oxidase [flavin-containing] A (Homo sapiens)).
Result string: 3.48

Query string: Find pIC50 for "O=C(CCCCc1cn(Cc2ccc3oc(-c4ccccc4)cc(=O)c3c2)nn1)Nc1ccccc1" on Amine oxidase [flavin-containing] A (Homo sapiens) and write it down.
Result string: 3.49

Query string: Fill in pIC50 for "O=C(CCc1cn(Cc2ccc3oc(-c4ccccc4)cc(=O)c3c2)nn1)Nc1ccccc1" tested with Amine oxidase [flavin-containing] A (Homo sapiens).
Result string: 3.58

Continue with the next compound.
Query string: Using Amine oxidase [flavin-containing] A (Homo sapiens) as the test system, report measured pIC50 of "Cc1ccc(C(=O)NCc2cn(Cc3ccc4oc(-c5ccc(Cl)cc5)cc(=O)c4c3)nn2)cc1" .
Result string: 3.27

* * *

- ASSAYED_SYSTEM: Amine oxidase [flavin-containing] B (Homo sapiens, UniProt P27338)
- Sequence (P27338 whole entry): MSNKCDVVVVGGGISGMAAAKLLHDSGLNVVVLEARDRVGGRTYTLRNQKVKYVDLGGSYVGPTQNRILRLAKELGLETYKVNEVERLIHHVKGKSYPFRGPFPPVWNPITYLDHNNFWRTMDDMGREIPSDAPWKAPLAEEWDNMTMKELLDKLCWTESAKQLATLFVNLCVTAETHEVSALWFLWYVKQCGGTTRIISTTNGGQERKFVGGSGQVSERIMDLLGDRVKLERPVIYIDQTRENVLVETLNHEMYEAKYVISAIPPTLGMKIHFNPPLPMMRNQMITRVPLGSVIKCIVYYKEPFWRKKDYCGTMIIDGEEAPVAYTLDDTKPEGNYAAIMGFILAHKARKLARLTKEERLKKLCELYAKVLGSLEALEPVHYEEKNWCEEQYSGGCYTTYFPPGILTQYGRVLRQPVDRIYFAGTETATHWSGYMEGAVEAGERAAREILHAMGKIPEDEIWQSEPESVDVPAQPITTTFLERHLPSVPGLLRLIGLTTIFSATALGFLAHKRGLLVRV
METRIC_NAME: IC50 (µM)
Dear colleague, please return just the value in µM, with no unit written.

Below, each entry is followed by its recorded IC50 result.
Query string: Give the value of IC50 reported for the following: "O=C(NCc1cn(Cc2ccc3oc(-c4ccc(Cl)cc4)cc(=O)c3c2)nn1)c1ccc(Cl)cc1"
Result string: 47

Query string: Return IC50 (reported value) for this compound: "O=c1cc(-c2ccc(Cl)cc2)oc2ccc(Cn3cc(COc4cccc(O)c4)nn3)cc12"
Result string: 71.3

Query string: Give IC50 for "O=C(CCCCc1cn(Cc2ccc3oc(-c4ccc(Cl)cc4)cc(=O)c3c2)nn1)Nc1ccc(F)cc1"
Result string: 377

Continuing:
Query string: Return value of IC50 for input "O=c1cc(-c2ccc(Cl)cc2)oc2ccc(Cn3cc(CNc4ccccc4)nn3)cc12" , no commentary.
Result string: 350

Query string: Please give the documented IC50 of "O=C(CCc1cn(Cc2ccc3oc(-c4ccc(Cl)cc4)cc(=O)c3c2)nn1)Nc1ccc(F)cc1"
Result string: 121
